Reported EC50 by item:
# Target entity: GCase (Homo sapiens)
# Construct: endogenous in cells; host or cells: HeLa cells
# Sequence (P04062 40-536): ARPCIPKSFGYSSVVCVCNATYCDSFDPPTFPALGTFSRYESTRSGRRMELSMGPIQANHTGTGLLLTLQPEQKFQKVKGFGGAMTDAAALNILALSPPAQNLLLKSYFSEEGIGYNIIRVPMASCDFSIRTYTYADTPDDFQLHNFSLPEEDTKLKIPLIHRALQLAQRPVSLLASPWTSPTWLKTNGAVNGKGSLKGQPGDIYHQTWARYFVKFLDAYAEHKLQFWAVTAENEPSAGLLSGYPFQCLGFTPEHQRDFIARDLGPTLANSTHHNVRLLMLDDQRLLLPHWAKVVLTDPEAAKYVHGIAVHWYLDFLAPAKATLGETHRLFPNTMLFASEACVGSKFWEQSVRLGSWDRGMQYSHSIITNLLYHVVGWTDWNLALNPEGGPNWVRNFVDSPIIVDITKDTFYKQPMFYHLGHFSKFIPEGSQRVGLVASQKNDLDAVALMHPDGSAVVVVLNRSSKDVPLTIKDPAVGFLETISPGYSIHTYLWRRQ
# Test name: activation of GCase in a live cell PFB assay in HELA cells
# Assay type: cell-based
# Conditions used: activation of GCase, EC50 ranges

Worked cases, EC50 given:
CCOc1nn(C2COC2)c2nc(N3CCC4(CC3)CC(=O)N(c3ccc(C(F)(F)F)nc3)C4)ncc12
10 to 50 µM
Cc1nc(N2CC3(CCN(c4cnc5cnn(CC(F)F)c5n4)CC3)CC2=O)cc(C(F)(F)F)n1
10 to 50 µM
O=C1CC2(CCN(c3cnc4cnn(CC(F)F)c4n3)CC2)CN1Cc1cncc(F)c1
50 to 100 µM
Cc1nc(N2CCC3(C2)CN(c2ncc4cnn(C5COC5)c4n2)C3)cc(C(F)(F)F)n1
10 to 50 µM
Cc1nc(N2CC3(CCN(c4cnc5cnn([C@H]6CCOC6)c5n4)C3)C2)cc(C(F)(F)F)n1
10 to 50 µM
Cc1nn(C2COC2)c2nc(N3CCC4(CCN(c5ccnc(C(F)(F)F)c5)C4)C3)ncc12 (centres unmarked)
> 100 µM
Cc1nc(N2CCC3(C2)CN(c2cnc4c(C)nn(C5COC5)c4n2)C3)cc(C(F)(F)F)n1
10 to 50 µM
O=C1CC2(CCN(c3cnc4cnn(C5COC5)c4n3)CC2)CN1c1ccnc(C(F)(F)F)c1
10 to 50 µM

Now, please, on to the next compound.
Record summary for O=C1N(c2nccc(C(F)(F)F)n2)CCC12CCN(c1cnc3cnn(CC(F)F)c3n1)CC2 : reported EC50 = < 10 µM
